The following binders are shown together with reported conversion of 0708-30 by PAD4, 10 µM inhibitor values.
target: recombinant human PAD4 (human, UniProt Q9UM07 1-663); assay: cell-based or functional assay
Sequence (Q9UM07 whole entry): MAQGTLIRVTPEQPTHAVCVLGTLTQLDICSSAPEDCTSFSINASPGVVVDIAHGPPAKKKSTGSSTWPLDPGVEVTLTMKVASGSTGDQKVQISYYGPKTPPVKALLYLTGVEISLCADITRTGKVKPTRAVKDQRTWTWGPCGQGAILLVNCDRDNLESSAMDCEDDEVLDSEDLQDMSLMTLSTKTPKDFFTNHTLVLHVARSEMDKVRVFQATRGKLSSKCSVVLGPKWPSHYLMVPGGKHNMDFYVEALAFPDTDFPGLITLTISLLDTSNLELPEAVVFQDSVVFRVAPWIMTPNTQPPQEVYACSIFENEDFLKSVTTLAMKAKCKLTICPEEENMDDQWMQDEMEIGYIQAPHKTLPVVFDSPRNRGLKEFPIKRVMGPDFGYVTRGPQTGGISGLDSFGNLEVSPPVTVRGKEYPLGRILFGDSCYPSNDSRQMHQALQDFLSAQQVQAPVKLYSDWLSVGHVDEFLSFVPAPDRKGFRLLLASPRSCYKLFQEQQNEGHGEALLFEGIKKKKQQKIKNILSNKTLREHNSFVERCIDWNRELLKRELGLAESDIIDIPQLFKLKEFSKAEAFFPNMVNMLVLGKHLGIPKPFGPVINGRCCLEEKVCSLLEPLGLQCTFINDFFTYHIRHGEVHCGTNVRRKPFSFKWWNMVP
Square brackets hold non-standard residues; d marks the D form. Orn(fluoroacetimidoyl) = N=C(CF)NCCC[C@H](N)C(=O)O
Numbers only here, please. The scale is %.

Asked: Please look up its conversion of 0708-30 by PAD4, 10 µM inhibitor: Ac-FFDSHKWH[Orn(fluoroacetimidoyl)]DFFYSD-NH2 (SMILES CC(=O)N[C@@H](Cc1ccccc1)C(=O)N[C@@H](Cc1ccccc1)C(=O)N[C@@H](CC(=O)O)C(=O)N[C@@H](CO)C(=O)N[C@@H](Cc1c[nH]cn1)C(=O)N[C@@H](CCCCN)C(=O)N[C@@H](Cc1c[nH]c2ccccc12)C(=O)N[C@@H](Cc1c[nH]cn1)C(=O)N[C@@H](CCCNC(=N)CF)C(=O)N[C@@H](CC(=O)O)C(=O)N[C@@H](Cc1ccccc1)C(=O)N[C@@H](Cc1ccccc1)C(=O)N[C@@H](Cc1ccc(O)cc1)C(=O)N[C@@H](CO)C(=O)N[C@@H](CC(=O)O)C(N)=O) [0741-02FA]
Given back: 50

Shift focus to the following entry.
Asked: Please look up its conversion of 0708-30 by PAD4, 10 µM inhibitor: Ac-FFDSKHFD[Orn(fluoroacetimidoyl)]EWIWSD-NH2 (SMILES CC[C@H](C)[C@H](NC(=O)[C@H](Cc1c[nH]c2ccccc12)NC(=O)[C@H](CCC(=O)O)NC(=O)[C@H](CCCNC(=N)CF)NC(=O)[C@H](CC(=O)O)NC(=O)[C@H](Cc1ccccc1)NC(=O)[C@H](Cc1c[nH]cn1)NC(=O)[C@H](CCCCN)NC(=O)[C@H](CO)NC(=O)[C@H](CC(=O)O)NC(=O)[C@H](Cc1ccccc1)NC(=O)[C@H](Cc1ccccc1)NC(C)=O)C(=O)N[C@@H](Cc1c[nH]c2ccccc12)C(=O)N[C@@H](CO)C(=O)N[C@@H](CC(=O)O)C(N)=O) [0741-01FA]
Given back: 63

Source: patent US20110142868A1
